Reference source: patent US20250122182A1

ASSAYED SYSTEM: Recombinant KAT6A/MOZ (488-778) protein (Homo sapiens (Human), UniProt Q92794)
Sequence (Q92794 488-778): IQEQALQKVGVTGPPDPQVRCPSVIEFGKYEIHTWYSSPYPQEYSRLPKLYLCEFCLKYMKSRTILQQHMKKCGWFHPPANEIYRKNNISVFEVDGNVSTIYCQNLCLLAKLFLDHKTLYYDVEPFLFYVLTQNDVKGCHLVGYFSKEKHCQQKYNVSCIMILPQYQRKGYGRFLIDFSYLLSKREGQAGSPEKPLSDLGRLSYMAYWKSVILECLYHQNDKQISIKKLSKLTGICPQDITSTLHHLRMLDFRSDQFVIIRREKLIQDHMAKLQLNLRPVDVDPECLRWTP
ASSAY METHOD TEXT: KAT6A AlphaLISA Inhibition Screening Assay
Type: biochemical
CONDITION SUMMARY: read-out: Average Kat6A % inhibition @ 10 μM; 10 μM test compound
MEASURED PARAMETER: inhibition at 10 µM

{"columns": ["MOLECULE", "MEASURED PARAMETER", "RECORDED MEASUREMENT"],
 "data": [
  ["C=C(F)C(=O)NCc1cnn(Cc2cc(OC)c3c(NS(=O)(=O)c4cc(CC)ccc4OCC(=O)O)noc3c2)c1 [Syn. Ex. 67]", "inhibition at 10 µM", "100%"],
  ["C=C(F)C(=O)NCc1cnn(Cc2cc(OC)c3c(NS(=O)(=O)c4cc(C)ccc4OC)noc3c2)c1 [Syn. Ex. 89]", "inhibition at 10 µM", "100%"]
]}

Enquiry: Given C=C(F)C(=O)NCc1cnn(Cc2cc(OC)c3c(NS(=O)(=O)c4cc(CC)ccc4OCc4ncon4)noc3c2)c1 [Syn. Ex. 73] , state its recorded inhibition at 10 µM.
Return: 100%

Enquiry: Queued: C#CC(=O)NCc1cnc(Oc2cc(OC)c3c(NS(=O)(=O)c4cc(CC)ccc4OC)noc3c2)s1 [Syn. Ex. 103]
Return: 99%

Enquiry: Next up: CCOC(=O)NCc1cnn(Cc2cc(OC)c3c(NS(=O)(=O)c4cc(CC)ccc4OC)noc3c2)c1 [Syn. Ex. 16]
Return: 98%

Enquiry: What do you get for COc1cc(Cn2cc(CNS(C)(=O)=O)cn2)cc2onc(NS(=O)(=O)c3ccccc3OCc3ccccc3)c12 [Syn. Ex. 37] ?
Return: 100%
